Here is a set of compounds with reported IC50 for High affinity nerve growth factor receptor (Homo sapiens, UniProt P04629), compiled from the literature.

{"columns": ["compound", "qualifierOperator", "IC50 [nM]"],
 "data": [
  ["CC(Nc1ccn2ncc(C(=O)N[C@H]3CC[C@H](O)CC3)c2n1)c1cccc(F)c1 (some centres undefined)", "=", 3],
  ["CC(C)n1cc(C(=O)Nc2ccc(Oc3ccnc4cc(OCCCCCCN(C)C)c5c(c34)OCCO5)c(F)c2)c(=O)n(-c2ccc(F)cc2)c1=O", "<", 50],
  ["O=C(NC1CCOCC1)c1cnc2ccc(NCc3cccc(F)c3)nn12", "=", 8.4],
  ["Cc1nc2ccc(NC(=O)c3coc4c3C(=O)NCC4)cc2s1", "=", 69.3]
]}
